Where do these numbers come from? They come from the RNAGym collection of RNA variant scans (doi:10.1126/science.aae0568).

B1: tRNA (parent)
chain: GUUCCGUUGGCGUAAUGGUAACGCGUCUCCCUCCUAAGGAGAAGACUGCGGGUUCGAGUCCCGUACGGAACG

Variants of: B1
method: yeast fitness relative to wild type (ratio to wild type); higher = fitter; tRNA-Arg(CCU), competitive growth, 37 C, YPD
Fewer inactive variants are shown than the library holds.
# reported yeast fitness; entries follow
Hey, just send me the number, nothing else.

G10C G23C A45U U59G | 0.528
U3G A45G U54C | 0.678
U3C G12A C24A A36U C61U G67U | 0.55
U2C A20G A42U | 0.642
C27U C33U C66U | 0.536
A21G G56A | 1.08

What does the record list as yeast fitness for A40C G50A ? 0.619

What does the record list as yeast fitness for U3A C5U C46A ? 0.724

What does the record list as yeast fitness for G17A G56C ? 0.527

What does the record list as yeast fitness for U3C C46A G67A A70C ? 0.556

What does the record list as yeast fitness for C30A A42C C66A ? 0.719

What does the record list as yeast fitness for U13G U19A C27G ? 0.626

What does the record list as yeast fitness for A21G U59C ? 0.883
